method_description: activity coefficient (dimensionless); of the first substance listed, at infinite dilution; xn = mol fraction of the nth substance listed
study_conditions: 303 K; 101.33 kPa; Liquid; Chromatography; x1 = 0
endpoint: activity coefficient
// no unit, no text: just the number

C#CCCCCC [1-heptyne] + C[n+]1ccn(CCO)c1.O=S(=O)([O-])C(F)(F)C(F)(F)C(F)(F)C(F)(F)F :: 16.7

Dear colleague, I am looking for the recorded activity coefficient of the following compound: CC1CCCCC1 [methylcyclohexane] + C[n+]1ccn(CCO)c1.O=S(=O)([O-])C(F)(F)C(F)(F)C(F)(F)C(F)(F)F
38.1

Find the recorded activity coefficient belonging to Cc1cccc(C)c1 [1,3-dimethylbenzene] + C[n+]1ccn(CCO)c1.O=S(=O)([O-])C(F)(F)C(F)(F)C(F)(F)C(F)(F)F and report it.
11.6

Which activity coefficient value is on record for CCCO [propan-1-ol] + C[n+]1ccn(CCO)c1.O=S(=O)([O-])C(F)(F)C(F)(F)C(F)(F)C(F)(F)F ?
2.22

Could you share which activity coefficient value was measured for CCCCCC [hexane] + C[n+]1ccn(CCO)c1.O=S(=O)([O-])C(F)(F)C(F)(F)C(F)(F)C(F)(F)F ?
23.5

Requested read-out: activity coefficient. Entry: C=CCCCCCC [oct-1-ene] + C[n+]1ccn(CCO)c1.O=S(=O)([O-])C(F)(F)C(F)(F)C(F)(F)C(F)(F)F
53.9

Entry under review: C1CCCCC1 [cyclohexane] + C[n+]1ccn(CCO)c1.O=S(=O)([O-])C(F)(F)C(F)(F)C(F)(F)C(F)(F)F . Reported activity coefficient?
24.3

Could you share which activity coefficient value was measured for CCCCCCC [heptane] + C[n+]1ccn(CCO)c1.O=S(=O)([O-])C(F)(F)C(F)(F)C(F)(F)C(F)(F)F ?
53

* * *

method_description: activity coefficient (dimensionless); of the first substance listed, at infinite dilution; xn = mol fraction of the nth substance listed
study_conditions: 333 K; 101.33 kPa; Liquid; Chromatography; x1 = 0
Cut-off 3 on activity coefficient, inclusive. At or above means yes; below means no.

c1ccccc1 [benzene] + C[n+]1ccn(CCO)c1.O=S(=O)([O-])C(F)(F)C(F)(F)C(F)(F)C(F)(F)F :: yes

I'd appreciate it if you could say whether Cc1cccc(C)c1 [1,3-dimethylbenzene] + C[n+]1ccn(CCO)c1.O=S(=O)([O-])C(F)(F)C(F)(F)C(F)(F)C(F)(F)F has activity coefficient at least equal to 3.
yes

Textbook exercise: given the entry CC#N [acetonitrile] + C[n+]1ccn(CCO)c1.O=S(=O)([O-])C(F)(F)C(F)(F)C(F)(F)C(F)(F)F , state whether its activity coefficient is greater than or equal to 3.
no

Would you say ClC(Cl)Cl [trichloromethane] + C[n+]1ccn(CCO)c1.O=S(=O)([O-])C(F)(F)C(F)(F)C(F)(F)C(F)(F)F shows activity coefficient at minimum 3?
no

* * *

method_description: activity coefficient (dimensionless); of the first substance listed, at infinite dilution; xn = mol fraction of the nth substance listed
study_conditions: 323 K; 101.33 kPa; Liquid; Chromatography; x1 = 0
endpoint: activity coefficient
# output: bare number, no unit

Sample answers from the record:
ClC(Cl)Cl [trichloromethane] + C[n+]1ccn(CCO)c1.O=S(=O)([O-])C(F)(F)C(F)(F)C(F)(F)C(F)(F)F :: 2.11
CCCCCCCCC [nonane] + C[n+]1ccn(CCO)c1.O=S(=O)([O-])C(F)(F)C(F)(F)C(F)(F)C(F)(F)F :: 105

Then this molecule:
Give its activity coefficient value. Item: C=CCCCCCCCC [1-decene] + C[n+]1ccn(CCO)c1.O=S(=O)([O-])C(F)(F)C(F)(F)C(F)(F)C(F)(F)F
91.5
